# subject.of.test: RSKL-pY423
# procedure.text: fluorescence polarization
Assignment: determine reported Kd for the given binders.
// return numeric value only (unit: nM, not printed)

Dear colleague, I am looking for the recorded Kd of the following binder: T8V S10A K15L (designed binder) MKIEEHHHHHHSSGRENLYFQGGAAQPAAPVDSIQAEEWYFGKLGRKDAERQLLSFGNPRGTFLIRESETVKGAYALSIRDWDDMKGDHVKHYLIRKLDNGGYYITTRAQFETLQQLVQHYSERAAGLSSRLVVPSHKGAAA
77

// returns reported Kd for input S10A (designed binder) MKIEEHHHHHHSSGRENLYFQGGAAQPAAPVDSIQAEEWYFGKLGRKDAERQLLSFGNPRGTFLIRESETTKGAYALSIRDWDDMKGDHVKHYKIRKLDNGGYYITTRAQFETLQQLVQHYSERAAGLSSRLVVPSHKGAAA
2500

Any idea what its Kd is? The binder is T8V (designed binder) MKIEEHHHHHHSSGRENLYFQGGAAQPAAPVDSIQAEEWYFGKLGRKDAERQLLSFGNPRGTFLIRESETVKGAYSLSIRDWDDMKGDHVKHYKIRKLDNGGYYITTRAQFETLQQLVQHYSERAAGLSSRLVVPSHKGAAA
14000
